Test system: Bacillus cereus
Assay: Bactericidal activity against Bacillus cereus CECT 148 at 0.2 mg/disk after 24 hrs by paper disk-agar diffusion method
Type: functional
Short version: inhibition zone (IZ) at least 10 mm is class 1, less is class 0.

input: Confirm if inhibition zone (IZ) reported for the compound COc1ccc(CCC(=O)OCCCCCC2c3cc(OC)c(OC)cc3CCN2C)cc1 (stereo not given) is 10 mm or above.
output: class 0

input: Confirm if inhibition zone (IZ) reported for the compound COc1cc2c(cc1OC)C(CCCCCOC(=O)NCCc1ccc(F)cc1)N(C)CC2 (stereo not given) is 10 mm or above.
output: class 1

input: Confirm if inhibition zone (IZ) reported for the compound COc1cc2c(cc1OC)C(CCCCCOC(=O)NCCc1ccc(Cl)cc1)N(C)CC2 (stereo not given) is 10 mm or above.
output: class 1

Next:
input: Confirm if inhibition zone (IZ) reported for the compound CCCCC1c2cc(OC)c(OC)cc2CCN1C (stereo not given) is 10 mm or above.
output: class 0

input: Confirm if inhibition zone (IZ) reported for the compound COc1cc2c(cc1OC)C(CCCCCOC(=O)c1ccc(F)cc1)N(C)CC2 (stereo not given) is 10 mm or above.
output: class 1

input: Confirm if inhibition zone (IZ) reported for the compound COc1ccc(NC(=O)OCCCCCC2c3cc(OC)c(OC)cc3CCN2C)cc1 (stereo not given) is 10 mm or above.
output: class 1

input: Confirm if inhibition zone (IZ) reported for the compound COc1cc2c(cc1OC)C(CCCCCOC(=O)Nc1ccc(F)cc1)N(C)CC2 (stereo not given) is 10 mm or above.
output: class 1

input: Confirm if inhibition zone (IZ) reported for the compound COc1cc2c(cc1OC)C(CCCCCOC(=O)CCc1ccc(Cl)cc1)N(C)CC2 (stereo not given) is 10 mm or above.
output: class 1

input: Confirm if inhibition zone (IZ) reported for the compound COc1cc2c(cc1OC)C(CCCCCOC(=O)Nc1ccc(Cl)cc1)N(C)CC2 (stereo not given) is 10 mm or above.
output: class 1

input: Confirm if inhibition zone (IZ) reported for the compound `COC(=O)CCCCC1=[N+](C)CCc2cc(OC)c(OC)cc21` is 10 mm or above.
output: class 0

meta.source: ChEMBL document CHEMBL2385053
